Numbers sourced from the nanobody polyreactivity screen of Harvey et al. (2022).

# assayDetails: yeast display, Sf9 membrane polyspecificity reagent, FACS + sequencing; frameworks hold sequencing errors
measuredMetric: polyreactivity (PSR sort gate)

sequenceChain: QVQLVESGGGLVQAGGSLRLSCAASGRIFARNAMGSYRQAPGKERELVATIRVGGGSTYYADSVKGRFTISRDNAKNTVYLQMNSLKPEDTAVYYCAVRQLYSYPGDRRGYYWGQGTQVTVSS
observedResult: low polyreactivity
--
sequenceChain: QVQLVESGGGLVQAGGSLRLSCAASGSTFSSYTMGWYRQAPGKERELVATINSRGDNTYYADSVKGRFTISRDNAKNTVYLQMNSLKPEDTAVYYCAARSRRHDFDYWGQGTQVTVSS
observedResult: high polyreactivity
--
sequenceChain: QVQLVESGGGLVQAGGSLRLSCAASGSTFVPYAMGWYRQAPGKERELVARISRRGGSSTYYADSVKGRFTISRDNAKNTVYLQMNSLKPEDTAVYYCNKGHITFASVSSGPSPGGYWGQGTQVTVSS
observedResult: low polyreactivity
--
sequenceChain: QVQLVESGGGLVQAGGSLRLSCAASGGTFDSYAMGWYRQAHGKERELVAAITRRTSSTYYADSVKGRFTISRDNAKNTVYLQMHSLKPEDTAVYYCNADSYYYDHRDFGYWGQGTLVTVSS
observedResult: high polyreactivity

Kindly review the next sequence as well.
// query Fill in the blank: the reported polyreactivity (PSR sort gate) of QVQLVESGGGLVQAGGSLRLSCAASGRNFYRYAMGRYREAPGKERELVAAIRYSGGRTYYADSVKGRFTISRDNAKNTFYLQMNSLKPEDTAVYYCASDGQWYYAPFRGGDYENDYWGQGTQVTLSS is ____.
// result low polyreactivity
